B1: library; numbered along this chain (parent)
chain: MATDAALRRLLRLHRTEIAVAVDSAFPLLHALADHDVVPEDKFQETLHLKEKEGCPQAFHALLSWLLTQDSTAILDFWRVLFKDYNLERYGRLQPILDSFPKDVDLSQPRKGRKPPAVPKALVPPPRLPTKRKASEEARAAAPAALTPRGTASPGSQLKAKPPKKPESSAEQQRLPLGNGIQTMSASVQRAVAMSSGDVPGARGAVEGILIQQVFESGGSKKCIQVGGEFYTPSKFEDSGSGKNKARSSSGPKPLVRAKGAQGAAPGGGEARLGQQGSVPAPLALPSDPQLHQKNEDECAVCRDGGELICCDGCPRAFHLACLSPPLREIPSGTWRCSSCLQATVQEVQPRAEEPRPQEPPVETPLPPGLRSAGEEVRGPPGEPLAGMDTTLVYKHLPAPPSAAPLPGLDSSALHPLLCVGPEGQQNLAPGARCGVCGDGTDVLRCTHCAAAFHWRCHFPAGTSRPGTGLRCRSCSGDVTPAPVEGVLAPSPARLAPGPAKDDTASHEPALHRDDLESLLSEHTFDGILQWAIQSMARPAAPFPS

Variants of: B1
test-method-notes: AIRE transcriptional activation functional score (insulin promoter-GFP; nonsense median 0, synonymous median 1) (normalised score); higher = higher AIRE activity (more reporter activation)
experimental-context: with insulin promoter-GFP reporter in HEK293
reported-metric: AIRE transcriptional activation functional score
Just the number, please, no unit attached.

Illustrative cases are given below, each with its answer.
[
  {
    "variant-descriptor": "S249F",
    "measurement": 0.707
  },
  {
    "variant-descriptor": "G369E",
    "measurement": 1.68
  },
  {
    "variant-descriptor": "L291R",
    "measurement": 0.656
  },
  {
    "variant-descriptor": "A160M",
    "measurement": 0.0796
  },
  {
    "variant-descriptor": "Q173I",
    "measurement": 1.45
  }
]

The value of AIRE transcriptional activation functional score measured for the variant L323W turned out to be 1.42

Value of measured AIRE transcriptional activation functional score for the entry F459N : 1.27

Just so you know, measured AIRE transcriptional activation functional score for G431N came out at 0.881

AIRE transcriptional activation functional score recorded for this variant, R9E , is -0.057

Lab book: AIRE transcriptional activation functional score of K120T noted as 1.79

Noted for G469M : its AIRE transcriptional activation functional score reads 1.18

The variant V420M showed AIRE transcriptional activation functional score equal to 1.43

AIRE transcriptional activation functional score in this record for P325G : 1.1

Record A540E , field AIRE transcriptional activation functional score: 0.617

Per the record, V104S has AIRE transcriptional activation functional score of -0.0986

Item: P280M | AIRE transcriptional activation functional score: 1.23

Entry under test: G440A . Its AIRE transcriptional activation functional score was 0.417

C322K has a reported AIRE transcriptional activation functional score of 1.21
